Experiment: MTT cytotoxicity assay, HEK293
Format: cell-based
Conditions: human, HEK293 cells, healthy cell line, ND: Not detected
READOUT KIND: IC50 at 24 h (µg/mL)

INSERT INTO results (structure_smiles_string, readout_value) VALUES
  ('CC(C)=CCC/C(C)=C/CO', 81.8);
